- Tested on: Plenodomus lingam
- method-description: Antifungal activity against Leptosphaeria maculans isolate BJ-125/UAMH-9410 assessed as mycelial growth inhibition at 0.1 mM incubated under constant light for 5 days by mycelial radial growth bioassay
- Type: functional
- assay-conditions: isolate BJ-125/UAMH-9410, 120 h, read-out: GI
Each item that follows carries a reported inhibition of growth at 100 µM.

1. CSC(=S)NCc1cc2ccccc2[nH]1; 13%
2. CSC(=S)NCc1c[nH]c2ccccc12; 10%
3. c1ccc2[nH]cnc2c1; 11%

GET /value?item= CC(=O)NCCCc1c[nH]c2ccccc12 &field=inhibition of growth at 100 µM returns 10%

GET /value?item= CSC(=S)OCCc1c[nH]c2ccccc12 [METHYL TRYPTOPHOLDITHIOCARBAMATE] &field=inhibition of growth at 100 µM returns 7%

GET /value?item= NCCc1c[nH]c2ccccc12 &field=inhibition of growth at 100 µM returns 12%

GET /value?item= COn1c(CNC(C)=O)cc2ccccc21 &field=inhibition of growth at 100 µM returns 4%

GET /value?item= CC(=O)NCc1cc2ccccc2[nH]1 &field=inhibition of growth at 100 µM returns 7%

GET /value?item= CC(=O)NCc1ccc(-c2ccccc2)cc1 &field=inhibition of growth at 100 µM returns 9%

GET /value?item= COn1c(CNC(=S)SC)cc2ccccc21 &field=inhibition of growth at 100 µM returns 7%

GET /value?item= CSC(=S)NCCc1c[nH]c2ccccc12 [METHYL TRYPTAMINEDITHIOCARBAMATE] &field=inhibition of growth at 100 µM returns 43%

GET /value?item= CSC(=S)NCc1ccc(-c2ccccc2)cc1 &field=inhibition of growth at 100 µM returns 14%

GET /value?item= CSC(=S)OCCCc1c[nH]c2ccccc12 &field=inhibition of growth at 100 µM returns 5%

GET /value?item= CS/C(S)=N/CCCc1c[nH]c2ccccc12 &field=inhibition of growth at 100 µM returns 21%

GET /value?item= OCCCc1c[nH]c2ccccc12 &field=inhibition of growth at 100 µM returns 7%
